Where do the numbers come from? From PubChem BioAssay (NCI).

Tested on: CAKI-1 renal
Assay Notes: NCI tumour cell line growth inhibition, 384-well format
Property Measured: TGI (µM)
Record the value in µM, omitting the unit from your answer.

Below, 2 compounds whose answers are already recorded.
Nc1cc2c(cc1Cl)C(=O)c1ccccc1C2=O ... 26.3
CN(C)c1cc2c(cc1Sc1nc3c(N)nccc3n1CCNCC(C)(C)C)OCO2 ... 15.8

Let's switch to this compound now.
// O=S(=O)(c1ccc2c(c1)C(=NO)c1cc(S(=O)(=O)N3CCCCC3)ccc1-2)N1CCCCC1 : TGI value = 0.0352

----------
Tested on: MDA-MB-231 breast
Assay Notes: NCI tumour cell line growth inhibition, 384-well format; in the data active = GI50 below about 0.43 µM; inactive = the rest
Permitted responses: active, inactive

Task item: Could you kindly confirm the outcome this assay logged for CN(C)c1cc2c(cc1Sc1nc3c(N)nccc3n1CCNCC(C)(C)C)OCO2 ?
Reply: active

Task item: Could you kindly confirm the outcome this assay logged for O=S(=O)(c1ccc2c(c1)C(=NO)c1cc(S(=O)(=O)N3CCCCC3)ccc1-2)N1CCCCC1 ?
Reply: active

Task item: Could you kindly confirm the outcome this assay logged for NCC(=O)Nc1ccc(-n2nc(C(F)(F)F)cc2-c2ccc3c(ccc4ccccc43)c2)cc1 ?
Reply: active

Task item: Could you kindly confirm the outcome this assay logged for CCNC(=O)Nc1ccc(-c2nc3c(c(N4CCOC[C@@H]4C)n2)CCN(C2COC2)C3)cc1 ?
Reply: inactive

----------
Test system: CAKI-1 renal
Assay Notes: NCI tumour cell line growth inhibition, 384-well format
Quick reference for GI50 among some compounds

C[C@H](Nc1ccc(C#N)n(C)c1=O)c1cc2cc(Cl)ccc2[nH]c1=O ... 31100 nM
O=C(c1ccc(F)c(F)c1Nc1ccc(I)cc1F)N1CC(O)([C@H]2CCCCN2)C1 ... 994 nM
COc1c(Nc2ncc(Cl)c(N[C@@H]3[C@H]4C=CC(C4)[C@@H]3C(N)=O)n2)ccc2c1CC[C@@H](N1CCOCC1)CC2 ... 1350 nM

Let's switch to this compound now.
Summary line: NCC(=O)Nc1ccc(-n2nc(C(F)(F)F)cc2-c2ccc3c(ccc4ccccc43)c2)cc1 , CAKI-1 renal, reported GI50 = 1180 nM

----------
Tested on: DU-145 prostate
Assay Notes: NCI tumour cell line growth inhibition, 384-well format; in the data active = GI50 below about 0.43 µM; inactive = the rest
Permitted responses: True (active), False (inactive)

Look over these answered cases.
Nc1cc2c(cc1Cl)C(=O)c1ccccc1C2=O ... False
NCC(=O)Nc1ccc(-n2nc(C(F)(F)F)cc2-c2ccc3c(ccc4ccccc43)c2)cc1 ... False
COc1c(Nc2ncc(Cl)c(N[C@@H]3[C@H]4C=CC(C4)[C@@H]3C(N)=O)n2)ccc2c1CC[C@@H](N1CCOCC1)CC2 ... False
O=S(=O)(c1ccc2c(c1)C(=NO)c1cc(S(=O)(=O)N3CCCCC3)ccc1-2)N1CCCCC1 ... True

Now let's try a different one.
Task item: Could you kindly confirm the outcome this assay logged for O=C(c1ccc(F)c(F)c1Nc1ccc(I)cc1F)N1CC(O)([C@H]2CCCCN2)C1 ?
Reply: False

----------
System: OVCAR-4 ovarian
Assay Notes: NCI tumour cell line growth inhibition, 384-well format; in the data active means GI50 below about 0.43 µM; inactive means the rest
Permitted responses: class 1 = active, class 0 = inactive

Task item: Could you kindly confirm the outcome this assay logged for Nc1cc2c(cc1Cl)C(=O)c1ccccc1C2=O ?
Reply: class 0

Task item: Could you kindly confirm the outcome this assay logged for O=S(=O)(c1ccc2c(c1)C(=NO)c1cc(S(=O)(=O)N3CCCCC3)ccc1-2)N1CCCCC1 ?
Reply: class 1

Task item: Could you kindly confirm the outcome this assay logged for C[C@H](Nc1ccc(C#N)n(C)c1=O)c1cc2cc(Cl)ccc2[nH]c1=O ?
Reply: class 0

Task item: Could you kindly confirm the outcome this assay logged for CCNC(=O)Nc1ccc(-c2nc3c(c(N4CCOC[C@@H]4C)n2)CCN(C2COC2)C3)cc1 ?
Reply: class 1

----------
Quick reference for TGI among some molecules
Tested on: HT29 colon
Assay Notes: NCI tumour cell line growth inhibition, 384-well format
Record the value in nM, omitting the unit from your answer.

O=S(=O)(c1ccc2c(c1)C(=NO)c1cc(S(=O)(=O)N3CCCCC3)ccc1-2)N1CCCCC1 ... 326

Let's switch to this molecule now.
// CN(C)c1cc2c(cc1Sc1nc3c(N)nccc3n1CCNCC(C)(C)C)OCO2 : TGI value = 2260

----------
System: HS 578T breast
Assay Notes: NCI tumour cell line growth inhibition, 384-well format; in the data active means GI50 below about 0.43 µM; inactive means the rest
Permitted responses: active, inactive

Look over these answered cases.
CCNC(=O)Nc1ccc(-c2nc3c(c(N4CCOC[C@@H]4C)n2)CCN(C2COC2)C3)cc1 ... active
O=S(=O)(c1ccc2c(c1)C(=NO)c1cc(S(=O)(=O)N3CCCCC3)ccc1-2)N1CCCCC1 ... active
O=C(c1ccc(F)c(F)c1Nc1ccc(I)cc1F)N1CC(O)([C@H]2CCCCN2)C1 ... inactive

Now let's try a different one.
Task item: Could you kindly confirm the outcome this assay logged for COc1c(Nc2ncc(Cl)c(N[C@@H]3[C@H]4C=CC(C4)[C@@H]3C(N)=O)n2)ccc2c1CC[C@@H](N1CCOCC1)CC2 ?
Reply: inactive

----------
Tested on: ACHN renal
Assay Notes: NCI tumour cell line growth inhibition, 384-well format
Property Measured: TGI (µM)
Record the value in µM, omitting the unit from your answer.

CN(C)c1cc2c(cc1Sc1nc3c(N)nccc3n1CCNCC(C)(C)C)OCO2 ... 13.2
COc1c(Nc2ncc(Cl)c(N[C@@H]3[C@H]4C=CC(C4)[C@@H]3C(N)=O)n2)ccc2c1CC[C@@H](N1CCOCC1)CC2 ... 9.25

Let's switch to this compound now.
Summary line: O=S(=O)(c1ccc2c(c1)C(=NO)c1cc(S(=O)(=O)N3CCCCC3)ccc1-2)N1CCCCC1 , ACHN renal, reported TGI = 0.0316

----------
System: SW-620 colon
Assay Notes: NCI tumour cell line growth inhibition, 384-well format
Property Measured: TGI

Nc1cc2c(cc1Cl)C(=O)c1ccccc1C2=O ... 25.1 µM
CCNC(=O)Nc1ccc(-c2nc3c(c(N4CCOC[C@@H]4C)n2)CCN(C2COC2)C3)cc1 ... > 100 µM
O=C(c1ccc(F)c(F)c1Nc1ccc(I)cc1F)N1CC(O)([C@H]2CCCCN2)C1 ... 10.4 µM

// COc1c(Nc2ncc(Cl)c(N[C@@H]3[C@H]4C=CC(C4)[C@@H]3C(N)=O)n2)ccc2c1CC[C@@H](N1CCOCC1)CC2 : TGI value = 3.25 µM

// NCC(=O)Nc1ccc(-n2nc(C(F)(F)F)cc2-c2ccc3c(ccc4ccccc43)c2)cc1 : TGI value = 2.16 µM

----------
Quick reference for TGI among some compounds
Tested on: RPMI-8226 leukemia
Assay Notes: NCI tumour cell line growth inhibition, 384-well format
Kindly report the value followed by its unit.

COc1c(Nc2ncc(Cl)c(N[C@@H]3[C@H]4C=CC(C4)[C@@H]3C(N)=O)n2)ccc2c1CC[C@@H](N1CCOCC1)CC2 ... 3000 nM
O=S(=O)(c1ccc2c(c1)C(=NO)c1cc(S(=O)(=O)N3CCCCC3)ccc1-2)N1CCCCC1 ... 226 nM
Nc1cc2c(cc1Cl)C(=O)c1ccccc1C2=O ... 12000 nM
O=C(c1ccc(F)c(F)c1Nc1ccc(I)cc1F)N1CC(O)([C@H]2CCCCN2)C1 ... 4380 nM

// CCNC(=O)Nc1ccc(-c2nc3c(c(N4CCOC[C@@H]4C)n2)CCN(C2COC2)C3)cc1 : TGI value = 276 nM

----------
Test system: EKVX NSCLC
Assay Notes: NCI tumour cell line growth inhibition, 384-well format; in the data active = GI50 below about 0.43 µM; inactive = the rest
Permitted responses: YES (active), NO (inactive)

Look over these answered cases.
NCC(=O)Nc1ccc(-n2nc(C(F)(F)F)cc2-c2ccc3c(ccc4ccccc43)c2)cc1 ... NO
O=S(=O)(c1ccc2c(c1)C(=NO)c1cc(S(=O)(=O)N3CCCCC3)ccc1-2)N1CCCCC1 ... YES
CCNC(=O)Nc1ccc(-c2nc3c(c(N4CCOC[C@@H]4C)n2)CCN(C2COC2)C3)cc1 ... YES

Now let's try a different one.
Task item: Could you kindly confirm the outcome this assay logged for CN(C)c1cc2c(cc1Sc1nc3c(N)nccc3n1CCNCC(C)(C)C)OCO2 ?
Reply: YES

----------
Tested on: K-562 leukemia
Assay Notes: NCI tumour cell line growth inhibition, 384-well format
Quick reference for TGI among some compounds
Record the value in µM, omitting the unit from your answer.

Summary line: Nc1cc2c(cc1Cl)C(=O)c1ccccc1C2=O , K-562 leukemia, reported TGI = 74.7

Summary line: CN(C)c1cc2c(cc1Sc1nc3c(N)nccc3n1CCNCC(C)(C)C)OCO2 , K-562 leukemia, reported TGI = 0.737

Summary line: COc1c(Nc2ncc(Cl)c(N[C@@H]3[C@H]4C=CC(C4)[C@@H]3C(N)=O)n2)ccc2c1CC[C@@H](N1CCOCC1)CC2 , K-562 leukemia, reported TGI = 3.68
